IC50 by entry:
Tested on: C. violaceum CVO26
Assay: C. violaceum CVO26 growth inhibition (OD625)
Type: cell-based
Conditions: Chromobacterium violaceum, CVO26, 18 h, read-out: IC50 (Growth inhibition)

sample smiles	assayed system	IC50
BrCCCC[P+](c1ccccc1)(c1ccccc1)c1ccccc1	C. violaceum CVO26	> 500 µM
BrC(Br)[P+](c1ccccc1)(c1ccccc1)c1ccccc1	C. violaceum CVO26	> 100 µM
COC(=O)CCC[P+](c1ccccc1)(c1ccccc1)c1ccccc1	C. violaceum CVO26	> 100 µM

---

System: Amphora sp.
Test: Benthic diatom growth inhibition (chlorophyll-a)
Assay type: cell-based
Details: 120 h; growth, 5 days, chlorophyll-a; read-out: IC50 Amphora sp.
Method: All the biological assays were run by triplicate. […] For the active products, serial dilutions were performed to calculate the half-maximal inhibitory concentrations (IC50) or the minimal inhibitory concentrations (MIC). Unless otherwise stated, the test concentrations were 100, 50, 25, 10, 5, 2.5, 1, 0.5 and 0.1 μM. […] Five strains of benthic diatoms, Nitszchia sp. […] Plates were incubated under the abovementioned conditions for 5 days and then chlorophyll-a (Chla) was quantified. […]
pIC50: −log10 of the molar value.
outcome measure: pIC50

compound	outcome measure	measurement qualifier	data value
CCCCCCCCCCC[P+](c1ccccc1)(c1ccccc1)c1ccccc1 [Compound 11]	pIC50	=	5.48
CCCCC[P+](c1ccccc1)(c1ccccc1)c1ccccc1 [Compound 7]	pIC50	<	4.00
c1ccc([P+](CCCCCCCCCCCC[P+](c2ccccc2)(c2ccccc2)c2ccccc2)(c2ccccc2)c2ccccc2)cc1 [Compound 20]	pIC50	=	5.80
BrCCCC[P+](c1ccccc1)(c1ccccc1)c1ccccc1 [Compound 4]	pIC50	<	4.00
CCCCCCCCCCCCCCCCCC[P+](c1ccccc1)(c1ccccc1)c1ccccc1 [Compound 17]	pIC50	=	5.38
COC(=O)CCC[P+](c1ccccc1)(c1ccccc1)c1ccccc1 [Compound 2]	pIC50	=	4.36
C/C=C/C[P+](c1ccccc1)(c1ccccc1)c1ccccc1 [Compound 3]	pIC50	<	4.00
CCCCCCCCCCCCCCCC[P+](c1ccccc1)(c1ccccc1)c1ccccc1 [Compound 16]	pIC50	=	5.59
O=S(=O)([O-])CCCC[P+](c1ccccc1)(c1ccccc1)c1ccccc1 [Compound 6]	pIC50	<	4.00
